# Test system: HaCat
# Assay Overview: Cytotoxic Profiling of Annotated Libraries Using Quantitative High-Throughput Screening (AID 1296008); note: nearly all actives have a fitted effect of over 60% in size
# Setup Conditions: Five cell lines viability, CellTiter-Glo ATP luminescence, 48-72 h
Inconclusive results are not listed. The source made the active and inactive calls. Calls come from the whole dose curve; as a rule, active = well fitted inhibition curve with a large enough effect; inconclusive = small, poorly fitted or top-dose-only effect; inactive = flat fitted curve, though single readings scatter.
Value Type: outcome

>>> value_observed("CC(=O)O[C@@H]1[C@H](O[C@@H]2O[C@H](CO)[C@@H](O)[C@H](O)[C@H]2O)[C@@H](O[C@@H]2O[C@@H](C)[C@H](O)[C@@H](O[C@@H]3O[C@H](CO)[C@@H](O)[C@H](O)[C@H]3O)[C@H]2O)[C@H](OC(=O)[C@]23CCC(C)(C)C[C@H]2C2=CCC4[C@@]5(C)C[C@H](O)[C@H](O[C@@H]6O[C@H](C(=O)O)[C@@H](O)[C@H](O)[C@H]6O)[C@@](C)(C(=O)O)C5CC[C@@]4(C)[C@]2(C)CC3)O[C@@H]1C (stereo not given in full)")
"inactive"
>>> value_observed("C/C(=C\\CC[C@H](CO)[C@@H]1CC[C@]2(C)C3=C(CC[C@@]12C)[C@@]1(C)CCC(=O)C(C)(C)C1CC3)C(=O)O (stereo not given in full)")
"inactive"
>>> value_observed("COc1ccc(OC2OC(CO[C@@H]3O[C@@H](C)[C@H](O)[C@@H](O)[C@H]3O)C(O)C(O)C2O)cc1OC (stereo not given in full)")
"inactive"
>>> value_observed("N[C@@H](CCNCc1ccc(Cl)cc1)C(=O)N1CCCCC1")
"inactive"
>>> value_observed("CC(C)CC(=O)O[C@@H]1O[C@H](CO)[C@@H](O[C@H]2O[C@H](C)[C@@H](N[C@H]3C=C(CO)[C@@H](O[C@H]4O[C@H](CO)[C@@H](O[C@H]5O[C@H](CO)[C@@H](O[C@H]6O[C@H](CO)[C@@H](O)[C@H](O)[C@H]6O)[C@H](O)[C@H]5O)[C@H](O)[C@H]4O)[C@H](O)[C@H]3O)[C@H](O)[C@H]2O)[C@H](O)[C@H]1O")
"inactive"

###

# Assay Overview: Primary fluorescence-based thiol-reactive (MSTI) qHTS assay for identification of artifact compounds. (AID 1845221);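 note: thiol-reactive compounds lower the probe fluorescence signal; nearly all actives have a fitted effect of over 65% in size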
# Setup Conditions: MSTI thiol-reactivity probe, 1 h; series mostly up to 53.8 µM
Results filed as inconclusive are left out. The source made the active and inactive calls. Calls follow the shape of the dose curve; as a rule, active = well fitted inhibition curve with a large enough effect; inconclusive = small, poorly fitted or top-dose-only effect; inactive = no such curve, though single readings can be large or run the other way.
Value Type: activity change, negative = thiol reactive

>>> value_observed("CC(=O)O[C@@H]1[C@H](O[C@@H]2OC[C@](O)(CO)[C@H]2O)[C@@H](O[C@@H]2O[C@@H](C)[C@H](O)[C@@H](O[C@@H]3O[C@H](CO)[C@@H](O)[C@H](O)[C@H]3O)[C@H]2O)[C@H](OC(=O)[C@]23CCC(C)(C)C[C@H]2C2=CCC4[C@@]5(C)C[C@H](O)[C@H](O[C@@H]6O[C@H](C(=O)O)[C@@H](O)[C@H](O)[C@H]6O)[C@@](C)(C(=O)O)C5CC[C@@]4(C)[C@]2(C)CC3)O[C@@H]1C (stereo partly drawn)")
"238% [at 11.5 µM] (inactive)"
>>> value_observed("CC(=O)OCC1OC(O[C@H]2CC[C@@]3(C)C(CC[C@]4(C)C3CC=C3[C@@H]5CC(C)(C)CC[C@]5(C(=O)O)CC[C@]34C)[C@]2(C)CO)C(O)C(O)C1OC1OC(C)C(O)C(OC2OCC(O)C(O)C2O)C1O (stereo partly drawn)")
"307% [at 11.5 µM] (inactive)"
>>> value_observed("CC1OC(OC2CCC3(C)C(CCC4(C)C3C=CC35OCC6(CCC(C)(C)CC63)CCC45C)C2(C)CO)C(OC2OC(CO)C(O)C(O)C2O)C(O)C1OC1OC(CO)C(O)C(O)C1O (stereo not drawn)")
"34% [at 11.5 µM] (inactive)"
>>> value_observed("C/C=C(/C)C(=O)OC1CC(C)(C)CC2C3=CCC4C5(C)CCC(OC6OC(C)C(OC7OC(C(=O)O)C(O)C(OC8OC(CO)C(O)C(O)C8OC8OC(CO)C(O)C(O)C8O)C7O)C(O)C6O)C(C)(C)C5CCC4(C)C3(C)C(OC(=O)/C=C/C=C/C=C/CCC)C(OC(C)=O)C12CO (stereo not drawn)")
"260% [at 11.5 µM] (inactive)"
>>> value_observed("CC(=O)OCC1OC(OC2COC(OC3COC(OC4C(OC5C(CO)OC(OC6CCC7(C)C(CCC8(C)C7CC=C7C9CC(C)(C)CCC9(C(=O)OC9OC(CO)C(O)C(O)C9OC9OCC(OC%10OCC(O)(CO)C%10O)C(O)C9O)C(O)CC78C)C6(C)C)C(O)C5O)OCC(O)C4O)C(O)C3O)C(O)C2O)C(OC(=O)/C=C/c2ccccc2)C(O)C1OC(C)=O (stereo not drawn)")
"153% [at 6.41 µM] (inactive)"
>>> value_observed("CC1OC(O[C@H]2CC[C@@]3(C)C(CC[C@]4(C)C3CC=C3C5CC(C)(C)CC[C@]5(C(=O)OC5OC(CO)C(OC6OCC(OC7OCC(O)C(O)C7O)C(O)C6O)C(O)C5O)CC[C@]34C)C2(C)C)C(O)C(O)C1OC1OC(CO)C(O)C(OC2OC(CO)C(O)C(O)C2O)C1O (stereo partly drawn)")
"250% [at 11.5 µM] (inactive)"
>>> value_observed("CC1(C)CCC2(C(=O)O)C(O)CC3(C)C(=CCC4C5(C)CCC(OC6OC(CO)C(O)C(O)C6OC6OC(CO)C(O)C(O)C6OC6OCC(O)(CO)C6O)C(C)(C)C5CCC43C)C2C1 (stereo not drawn)")
"154% [at 11.5 µM] (inactive)"
>>> value_observed("C[C@@H]1CC[C@]2(C(=O)O[C@@H]3O[C@H](CO[C@@H]4O[C@H](CO)[C@@H](O[C@@H]5O[C@@H](C)[C@H](O)[C@@H](O)[C@H]5O)[C@H](O)[C@H]4O)[C@@H](O)[C@H](O)[C@H]3O)CC[C@]3(C)C(=CCC4[C@@]5(C)C[C@@H](O)[C@H](O)[C@@](C)(CO)C5CC[C@]43C)C2[C@H]1C (stereo partly drawn)")
"329% [at 11.5 µM] (inactive)"
